Reference source for all entries: patent US10080365B2

Test system: Septoria tritici isolates containing the G143A in the cytochrome b gene
assay: Glass house Trial 3: control of leaf blotch on wheat caused by two Septoria tritici isolates containing G143A
Type: in vivo
condition.set: Resistant Septoria tritici isolate 2 (G143A mutation), 50 ppm, % diseased leaf area after about 28 days
Procedure: The spray solutions were prepared in several steps: The stock solution was prepared as follows: 1.26 ml of a 1:1 mixture of cyclohexanone and dimethylsulfoxide was added to 8.4 mg of active ingredient. Next, 40.74 ml of a mixture of water, acetone (10%), the emulsifier Wettol (0.1%) and the wetting agent Silwet (0.05%) was added. […] Wheat plants were grown in pots. […] The extent of fungal attack on the leaves was then visually assessed as % diseased leaf area.

{"compound": "CON=C(C(=O)OC)c1ccccc1CON=C(C)c1cccc(C(F)(F)F)c1 [Trifloxystrobin, reference compound]", "assayed.target": "Septoria tritici isolates containing the G143A in the cytochrome b gene", "Disease level (%)": "70%"}
{"compound": "CO/C=C(C(=O)OC)\\C(C)=C/COc1ccn(-c2ccc(Cl)cc2)n1", "assayed.target": "Septoria tritici isolates containing the G143A in the cytochrome b gene", "Disease level (%)": "5%"}
{"compound": "Cn1nnn(-c2ccccc2COc2ccn(-c3ccc(Cl)cc3)n2)c1=O", "assayed.target": "Septoria tritici isolates containing the G143A in the cytochrome b gene", "Disease level (%)": "5%"}
{"compound": "CNC(=O)C(=N/OC)/C(C)=C\\COc1ccn(-c2ccc(Cl)cc2)n1", "assayed.target": "Septoria tritici isolates containing the G143A in the cytochrome b gene", "Disease level (%)": "3%"}
{"compound": "COC(=O)N(OC)c1ccccc1COc1ccn(-c2ccc(Cl)cc2)n1 [Pyraclostrobin, reference compound]", "assayed.target": "Septoria tritici isolates containing the G143A in the cytochrome b gene", "Disease level (%)": "40%"}
{"compound": "CNC(=O)C(=NOC)C(C)=CCOc1ccn(-c2ccc(F)cc2Cl)n1", "assayed.target": "Septoria tritici isolates containing the G143A in the cytochrome b gene", "Disease level (%)": "15%"}
{"compound": "CNC(=O)C(=NOC)C(C)=CCOc1ccn(-c2ccc(F)cc2F)n1", "assayed.target": "Septoria tritici isolates containing the G143A in the cytochrome b gene", "Disease level (%)": "30%"}

* * *

Measured pIC50 accompanies every entry in the list below.
Tested on: Septoria tritici (Qo-inhibitor sensitive, wild-type)
assay: Microtiter test, Septoria tritici Qo-inhibitor sensitive wild-type (Use Example 1)
Assay type: cell-based
condition.set: turbidity at 620 nm, read-out: Sensitive Septoria tritici isolate (wild type) (S-IC50)
Protocol: The active substances were formulated separately as a stock solution in dimethyl sulfoxide (DMSO) at a concentration of 10 000 ppm. Activity against the Septoria blotch pathogen caused by Septoria tritici in the microtiter test […] The antifungal activity was determined by measuring the turbidity of a culture in 96-well microplates in the presence of test compounds. Fungal growth was measured by recording the optical density at 620 nm every 15 h for 150 h. […]
pIC50: −log10 of the molar value.

{"chemical.smiles": "CON=C(C(=O)OC)C(C)=CCOc1ncn(-c2ccccc2C)n1", "assayed.target": "Septoria tritici (Qo-inhibitor sensitive, wild-type)", "pIC50": 4.77}
{"chemical.smiles": "C=CCO/N=C(\\C)c1ccc(OCc2ccccc2-n2nnn(C)c2=O)c(C)c1", "assayed.target": "Septoria tritici (Qo-inhibitor sensitive, wild-type)", "pIC50": 5.25}
{"chemical.smiles": "C/C(=N\\OC/C=C/Cl)c1ccc(OCc2ccccc2-n2nnn(C)c2=O)c(C)c1", "assayed.target": "Septoria tritici (Qo-inhibitor sensitive, wild-type)", "pIC50": 5.20}
{"chemical.smiles": "CON=C(C(=O)OC)C(C)=CCOc1ncn(-c2ccc(C(F)(F)F)cc2Cl)n1", "assayed.target": "Septoria tritici (Qo-inhibitor sensitive, wild-type)", "pIC50": 5.92}
{"chemical.smiles": "CCn1nnn(-c2ccccc2COc2cc(C)c(C(C)=NOC)cc2C)c1=O", "assayed.target": "Septoria tritici (Qo-inhibitor sensitive, wild-type)", "pIC50": 4.82}
{"chemical.smiles": "Cn1nnn(-c2ccccc2COc2ccn(-c3cccc(C(F)(F)F)c3)n2)c1=O", "assayed.target": "Septoria tritici (Qo-inhibitor sensitive, wild-type)", "pIC50": 5.30}
{"chemical.smiles": "CC=CCON=C(C)c1ccc(OCC=C(C)C(=NOC)C(=O)NC)c(C)c1", "assayed.target": "Septoria tritici (Qo-inhibitor sensitive, wild-type)", "pIC50": 5.80}
{"chemical.smiles": "C=CCON=C(C)c1cc(C)c(OCC=C(C)C(=NOC)C(=O)OC)cc1C", "assayed.target": "Septoria tritici (Qo-inhibitor sensitive, wild-type)", "pIC50": 6.22}
{"chemical.smiles": "CON=C(C(=O)OC)C(C)=CCOc1ccn(-c2cc(Cl)ccc2C)n1", "assayed.target": "Septoria tritici (Qo-inhibitor sensitive, wild-type)", "pIC50": 4.72}
{"chemical.smiles": "CC(=NOCc1ccccc1-n1nnn(C)c1=O)C(=O)c1ccc(C)c(C)c1", "assayed.target": "Septoria tritici (Qo-inhibitor sensitive, wild-type)", "pIC50": 5.05}
{"chemical.smiles": "CON=C(C(=O)OC)C(C)=CCOc1ncn(-c2cc(Cl)cc(Cl)c2)n1", "assayed.target": "Septoria tritici (Qo-inhibitor sensitive, wild-type)", "pIC50": 5.74}
{"chemical.smiles": "CCc1ccc(-n2cc(C)c(OCc3ccccc3-n3nnn(C)c3=O)n2)cc1", "assayed.target": "Septoria tritici (Qo-inhibitor sensitive, wild-type)", "pIC50": 5.54}
{"chemical.smiles": "Cc1c(OCc2ccccc2-n2nnn(C)c2=O)nn2c(C3CC3)cc(C3CC3)nc12", "assayed.target": "Septoria tritici (Qo-inhibitor sensitive, wild-type)", "pIC50": 5.30}
{"chemical.smiles": "Cc1cc(-c2c(C)noc2C)c(C)cc1OCc1ccccc1-n1nnn(C)c1=O", "assayed.target": "Septoria tritici (Qo-inhibitor sensitive, wild-type)", "pIC50": 5.10}
{"chemical.smiles": "CON=C(C(=O)OC)C(C)=CCOc1ncn(-c2ccc(C)c(Cl)c2)n1", "assayed.target": "Septoria tritici (Qo-inhibitor sensitive, wild-type)", "pIC50": 6.41}
{"chemical.smiles": "Cn1nnn(-c2ccccc2COc2ccn(-c3ccc(Cl)cc3)n2)c1=O", "assayed.target": "Septoria tritici (Qo-inhibitor sensitive, wild-type)", "pIC50": 6.36}
{"chemical.smiles": "CON=C(C(=O)OC)C(C)=CCOc1ncn(-c2ccc(Cl)c(Cl)c2)n1", "assayed.target": "Septoria tritici (Qo-inhibitor sensitive, wild-type)", "pIC50": 6.00}

* * *

System: Septoria tritici isolates containing the G143A in the cytochrome b gene
assay: Glass house Trial 3: control of leaf blotch on wheat caused by two Septoria tritici isolates containing G143A
Format: in vivo
condition.set: Resistant Septoria tritici isolate 2 (G143A mutation), 12.5 ppm, % diseased leaf area after about 28 days
Decision: Disease level (%) compared against 80%; not below it gives fulfilled, below it gives not fulfilled.

{"compound": "CNC(=O)C(=NOC)C(C)=CCOc1ccn(-c2ccc(F)cc2Cl)n1", "category.label": "fulfilled"}
{"compound": "CO/C=C(C(=O)OC)\\C(C)=C/COc1ccn(-c2ccc(Cl)cc2)n1", "category.label": "fulfilled"}
{"compound": "Cn1nnn(-c2ccccc2COc2ccn(-c3ccc(Cl)cc3)n2)c1=O", "category.label": "not fulfilled"}
{"compound": "CNC(=O)C(=N/OC)/C(C)=C\\COc1ccn(-c2ccc(Cl)cc2)n1", "category.label": "not fulfilled"}
{"compound": "COC(=O)N(OC)c1ccccc1COc1ccn(-c2ccc(Cl)cc2)n1 [Pyraclostrobin, reference compound]", "category.label": "not fulfilled"}
{"compound": "CNC(=O)C(=NOC)C(C)=CCOc1ccn(-c2ccc(F)cc2F)n1", "category.label": "not fulfilled"}

* * *

Measured pIC50 accompanies every entry in the list below.
System: Septoria tritici (Qo-inhibitor sensitive, wild-type)
assay: Microtiter test, Septoria tritici Qo-inhibitor sensitive wild-type (Use Example 1)
Type: cell-based
condition.set: turbidity at 620 nm, read-out: Sensitive Septoria tritici isolate (wild type) (S-IC50)
pIC50: −log10 of the molar value.
measured.quantity: pIC50

{"chemical.smiles": "CCCC(=NOCC)c1cc(C)c(OCc2ccccc2-n2nnn(C)c2=O)cc1C", "recorded.value": 4.72}
{"chemical.smiles": "CON=C(C(=O)OC)C(C)=CCOc1ncn(-c2ccc(Br)cc2)n1", "recorded.value": 5.10}
{"chemical.smiles": "CO/N=C(\\C)c1ccc(OCc2ccccc2-n2nnn(C)c2=O)c(C)c1", "recorded.value": 6.62}
{"chemical.smiles": "Cc1ccc(-n2cc(C)c(OCc3ccccc3-n3nnn(C)c3=O)n2)cc1C", "recorded.value": 6.00}

* * *

Measured pIC50 accompanies every entry in the list below.
System: Septoria tritici (Qo-inhibitor sensitive, wild-type)
assay: Microtiter test, Septoria tritici Qo-inhibitor sensitive wild-type (Use Example 1)
Assay type: cell-based
condition.set: turbidity at 620 nm, read-out: Sensitive Septoria tritici isolate (wild type) (S-IC50)
pIC50: −log10 of the molar value.
measured.quantity: pIC50

{"compound": "C=C(Cl)CON=C(C)c1ccc(OCC=C(C)C(=NOC)C(=O)NC)c(C)c1", "recorded.value": 6.10}
{"compound": "CO/C=C(/C(=O)OC)c1ccccc1COc1cc(-c2ccc(Cl)cc2)nn1C [Pyraoxystrobin, reference compound]", "recorded.value": 5.80}
{"compound": "Cc1cc(-c2cnco2)c(C)cc1OCc1ccccc1-n1nnn(C)c1=O", "recorded.value": 5.54}
{"compound": "CON=C(C(=O)OC)C(C)=CCOc1ncn(-c2cc(C(F)(F)F)ccc2Cl)n1", "recorded.value": 5.44}
{"compound": "CNC(=O)/C(=N/OC)c1ccccc1COc1cc(C)ccc1C [Dimoxystrobin, reference compound]", "recorded.value": 5.15}
